target: T1, recombinant human BCMA (Cat. No. 193-BC, R&D Systems) (human, UniProt Q02223 1-54)
T1 sequence (looked up): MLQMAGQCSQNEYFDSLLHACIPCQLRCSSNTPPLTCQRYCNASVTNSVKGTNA
procedure_details: BLI (Octet), BCMA fixed on Anti-Fc Biosensor, antibody 0.078 to 5 nM
Procedure: Among the selected 20 clones, Clones MN1, MN5, MN7, and MN8 which were expected to have excellent binding capacity to BCMA-expressing tumor cell lines were purified. Quantitative binding capacity (affinity) of Clones MN1, MN5, MN7, and MN8 to recombinant human BCMA was measured using the OCTET system (Pall Corporation). BCMA (Cat. No. 193-BC, R&D Systems) purified from HEK293 cells was fixed to Biosensor (Pall Corporation). […]
readout_label: Kd (nM)

binder: Clone MN7 (VH domain) (VHH, Single-domain antibody: a VH domain from a synthetic phage library, not camelid; Expressed in E. coli) VHH: EVQLVESGGGLVQPGGSLRLSCAASGFTFSSYAMGWVRQAPGKGPEVVSLISGSGGSTWYDDSVKGRFTISRDNSKNTLYLQMNSLRAEDTAVYYCASPEDMYQTWGQGTLVTVSS
unit_abbrev: nM
numeric_readout: 2.23
//
binder: Clone MN1 (VH domain) (VHH, Single-domain antibody: a VH domain from a synthetic phage library, not camelid; Expressed in E. coli) VHH: EVQLVESGGGLVQPGGSLRLSCAASGFTFTAYDMGWVRQAPGKGPEWVSLISSDSGDTWYDDSVKGRFTISRDNSKNTLYLQMNSLRAEDTAVYYCARLGAYSTTYDYWGQGTLVTVSS
unit_abbrev: nM
numeric_readout: 0.7
//
binder: Clone MN8 (VH domain) (VHH, Single-domain antibody: a VH domain from a synthetic phage library, not camelid; Expressed in E. coli) VHH: EVQLVESGGGLVQPGGSLRLSCAASGFTFSSYAMGWVRQAPGKGPEVVSLISGSGGSTWYDDSVKGRFTISRDNSKNTLYLQMNSLRAEDTAVYYCASPEDAPSYSRWGQGTLVTVSS
unit_abbrev: nM
numeric_readout: 1.17
//
binder: Clone MN5 (VH domain) (VHH, Single-domain antibody: a VH domain from a synthetic phage library, not camelid; Expressed in E. coli) VHH: EVQLVESGGGLVQPGGSLRLSCAASGFTFSSYAMGWVRQAPGKGPEVVSLISGSGGSTWYDDSVKGRFTISRDNSKNTLYLQMNSLRAEDTAVYYCASREDNMTTWGQGTLVTVSS
unit_abbrev: nM
numeric_readout: 2.22
